Method notes: Parental Cell Counter Screen for Stat Signaling Pathway Assay
Condition details: ME-180 (cervical carcinoma) parental cells, blue fluorescence artefact counter-screen; series mostly up to 38.3 µM
Inconclusive results are not listed. Active and inactive are the calls of the source. Calls come from the whole dose curve; as a rule, active = well fitted activation curve with a large enough effect; inconclusive = small, poorly fitted or top-dose-only effect; inactive = flat fitted curve, though single readings scatter.
Field 'call' accepts active, inactive

Below are worked cases with known answers.
>>> assigned_category("c1ccc2c(c1)[I+]c1ccccc1-2")
"inactive"
>>> assigned_category("COC1=C(C)C(=O)c2c(c(COC(N)=O)c3n2C[C@@H]2[C@@H]3N2C)C1=O (stereo partly specified)")
"active"
>>> assigned_category("Cc1c2ccncc2c(C)c2c1[nH]c1ccccc12")
"active"
>>> assigned_category("COC(=O)C(O)(c1ccc(NC(=O)c2ccco2)c(OC)c1)C(F)(F)F (stereo unspecified)")
"active"
>>> assigned_category("O=c1ccc2cc(O[C@H]3O[C@@H](CO)[C@@H](O)[C@@H](O)[C@@H]3O)c(O)cc2o1")
"active"

Moving on to the next compound.
Ask: Kindly provide the recorded test outcome for the following compound: "CC[C@]1(O)C(=O)OCc2c1cc1n(c2=O)Cc2cc3ccccc3nc2-1"
Result: inactive
